# neutralization titer per record follows
tgt: hemagglutinin (HA) of influenza virus H3N2 A/Wisconsin/67/05 (influenza A virus)
assayOverview: cell-based or functional assay
quantityName: neutralization titer (nM)

[[record]]
binder = "MD1211 (bispecific antibody) EVQLVESGGGLVQPGGSLRLSCAVSISIFDIYAMDWYRQAPGKQRDLVATSFRDGSTNYADSVKGRFTISRDNAKNTLYLQMNSLKPEDTAVYLCHVSLYRDPLGVAGGMGVYWGKGALVTVSSAAAGGGGSGGGGSGGGGSGGGGSGGGGSGGGGSGGGGSEVQLVESGGGLVQAGGSLKLSCAASGRTYAMGWFRQAPGKEREFVAHINALGTRTYYSDSVKGRFTISRDNAKNTEYLEMNNLKPEDTAVYYCTAQGQWRAAPVAVAAEYEFWGQGTQVTVSS"
quantityname = "neutralization titer"
unitdescriptor = "nM"
readoutnumber = 19.3

[[record]]
binder = "MD1209 (VHH) EVQLVESGGGLVQAGGSLKLSCAASGRTYAMGWFRQAPGKEREFVAHINALGTRTYYSDSVKGRFTISRDNAKNTEYLEMNNLKPEDTAVYYCTAQGQWRAAPVAVAAEYEFWGQGTQVTVSSAAAGGGGSGGGGSGGGGSGGGGSGGGGSGGGGSGGGGSEVQLVESGGGLVQAGGSLKLSCAASGRTYAMGWFRQAPGKEREFVAHINALGTRTYYSDSVKGRFTISRDNAKNTEYLEMNNLKPEDTAVYYCTAQGQWRAAPVAVAAEYEFWGQGTQVTVSS"
quantityname = "neutralization titer"
unitdescriptor = "nM"
readoutnumber = 109

[[record]]
binder = "MD1212 (VHH) EVQLVESGGGLVQPGGSLRLSCAVSISIFDIYAMDWYRQAPGKQRDLVATSFRDGSTNYADSVKGRFTISRDNAKNTLYLQMNSLKPEDTAVYLCHVSLYRDPLGVAGGMGVYWGKGALVTVSSAAAGGGGSGGGGSGGGGSGGGGSGGGGSGGGGSGGGGSEVQLVESGGGLVQPGGSLRLSCAVSISIFDIYAMDWYRQAPGKQRDLVATSFRDGSTNYADSVKGRFTISRDNAKNTLYLQMNSLKPEDTAVYLCHVSLYRDPLGVAGGMGVYWGKGALVTVSS"
quantityname = "neutralization titer"
unitdescriptor = "nM"
readoutnumber = 49.5

